What B-score was measured for each of the following?
Target: D(1A) dopamine receptor (Homo sapiens)
Test: D1 CRE-luciferase signal change, two-sided – cell-based, HEK293 D1, dopamine EC30, D1 allosteric modulator project, primary screen (AID 641)
Settings: dopamine EC30 potentiation, at 10 µM, actives deviate in either direction
The campaign covered roughly 58,000 compounds. About 3,400 (5.9%) were called active. Shown is part of a subset that was picked to be rich in actives.
Numbers only.

These recorded examples may help you get a feel for the data.
{"compound": "COC(=O)c1cnn2c(C(F)(F)F)cc(-c3ccco3)nc12", "target.desc": "D(1A) dopamine receptor (Homo sapiens)", "B-score": 1.18}
{"compound": "CCOc1cc(CN2CCN(C(=O)CC(C)C)CC2)ccc1OC", "target.desc": "D(1A) dopamine receptor (Homo sapiens)", "B-score": 0.0601}

Can you give me B-score for all of these, one by one?
1. O=C(CN1CCN(c2nc(-c3ccccc3)cs2)CC1)NCc1ccc2c(c1)OCO2
2. CCC(Sc1nncn1C)C(=O)Nc1nnc(-c2ccc(Cl)cc2)s1 (stereo not given)
3. O=c1cccc(-c2ccc(Br)cc2)o1

# output
[-0.0459, 0.176, 1.11]

Can you give me B-score for all of these, one by one?
1. Cc1cc(C)nc(-n2nc(C)cc2NC(=O)c2ccc(Br)o2)n1
2. CC1Cc2ccccc2N1C(=O)Cn1cnc2ccccc2c1=O (stereo not given)
3. CCOc1ccccc1NC(=O)C1CCC(CNc2c(N3CCOCC3)c(=O)c2=O)CC1 (stereo not given)
4. COCCNC(=O)C(c1ccc(C)o1)N(Cc1ccccc1)C(=O)Cn1nnc2ccccc21 (stereo not given)
5. CN(C)/C=C1/C(=O)Nc2ccccc21
6. COc1ccc(CCN2CNc3c(c(=O)n(C)c(=O)n3C)C2)cc1OC
7. CCOC(=O)c1ccccc1NC(=O)CC1Nc2ccccc2NC1=O (stereo not given)

# output
1. 6.02
2. -0.115
3. -0.266
4. 0.0616
5. 0.196
6. -0.27
7. -0.897

Can you give me B-score for all of these, one by one?
1. COc1ccc(NC(=O)Nc2cccc3cccnc23)cc1
2. COC(=O)c1sc(NC(=O)c2ccc(OC)cc2OC)nc1C
3. Cn1c(SCC(=O)Nc2cccc(O)c2)nnc1-c1ccc(S(=O)(=O)N2CCOCC2)cc1
4. N/C(=N\c1nc2ccccc2o1)NC(=O)C(Cc1ccccc1)N1C(=O)c2ccccc2C1=O (stereo not given)
5. CCn1nc(C(=O)OCC(=O)N2c3ccccc3CC2C)c2ccccc2c1=O (stereo not given)

# output
-0.391
-2.64
0.0252
-0.0263
4.38

Can you give me B-score for all of these, one by one?
1. CCN(CC)S(=O)(=O)c1cccc(C(=O)Nc2cc(C)nn2-c2nc(C)cc(C)n2)c1
2. COc1ccc(CCNC(=O)CCn2c(=O)oc3ccccc32)cc1OC
3. CCOc1cc(N2CCOCC2)c(OCC)cc1NC(=O)COc1cccc2cccnc12
4. CC1CCN(c2oc(-c3ccccc3F)nc2C#N)CC1
5. CC(C)(C)Nc1c(N)c(=O)oc2ccccc12
6. N#Cc1nc(COc2ccc(Cl)cc2)oc1N1CCCC1
7. Cc1cccc(-n2nc3c(c2NC(=O)c2ccc(Br)o2)CSC3)c1C

# output
[0.0356, 6.86, -6.32, 8.13, -1.25, 2.09, 0.109]

Can you give me B-score for all of these, one by one?
1. CCOc1cc(C(=O)N2CCc3cc(OC)c(OC)cc3C2)ccc1OC(F)F
2. c1ccc(-c2nnc3n2NC(c2ccc4c(c2)OCO4)S3)cc1 (stereo not given)
3. Cn1c(=O)[nH]c(=O)c2c1nc(N1CCN(CCO)CC1)n2CCSc1nc2ccccc2s1
4. COc1cc2[nH]c(=S)n(Cc3ccc(C)o3)c(=O)c2cc1OC
5. O=C(CN1CCOCC1)Nc1c2c(nc3c1CCC3)CCC2
6. CN1C(=O)CC(N2CCN(c3ccccn3)CC2)C1=O (stereo not given)
7. CC1(C)CC(=O)C=C(NC2CC(C)(C)NC(C)(C)C2)C1

# output
1: 15.1; 2: 7.49; 3: 0.525; 4: 2.05; 5: 2.06; 6: -0.0528; 7: -0.998

Can you give me B-score for all of these, one by one?
1. COc1ccc(OC)c(NC(=O)Cn2c(=O)oc3ccccc32)c1
2. CCOC(=O)C1CCN(C(=O)Nc2ccc(Cl)cc2)CC1
3. CCCN1C(=O)C(NS(=O)(=O)c2ccc(N)cc2)(C(F)(F)F)C(C(=O)OC)=C1C (stereo not given)
4. CCc1nnc(NC(=O)c2cccs2)s1

# output
1: 0.945; 2: -0.339; 3: -0.0535; 4: -1.13

Can you give me B-score for all of these, one by one?
1. COc1ccc(S(=O)(=O)N2CCN(c3ncnc4c(-c5ccccc5)nsc34)CC2)cc1
2. O=C(O)C1CCCN(S(=O)(=O)c2cccc3cccnc23)C1 (stereo not given)
3. Cc1cc(/C=N/n2cnnc2)c(C)n1-c1ccc2ncccc2c1

# output
[-0.0486, 0.0158, -0.264]

Can you give me B-score for all of these, one by one?
1. COc1ccc(N2CC(C)Cn3c2nc2c3c(=O)n(Cc3ccccc3F)c(=O)n2C)c(OC)c1 (stereo not given)
2. COc1ccc(-c2nn(-c3ccccc3)cc2C(=O)Nc2nc(CC(C)=O)ns2)cc1

# output
1: 0.483; 2: 0.451
